- Subject Of Test: T1, rat CD47 (rat, UniProt P97829 19-303)
- T1 construct: whole, on cells; also called CD47 on rat red blood cells
- T1 sequence (looked up): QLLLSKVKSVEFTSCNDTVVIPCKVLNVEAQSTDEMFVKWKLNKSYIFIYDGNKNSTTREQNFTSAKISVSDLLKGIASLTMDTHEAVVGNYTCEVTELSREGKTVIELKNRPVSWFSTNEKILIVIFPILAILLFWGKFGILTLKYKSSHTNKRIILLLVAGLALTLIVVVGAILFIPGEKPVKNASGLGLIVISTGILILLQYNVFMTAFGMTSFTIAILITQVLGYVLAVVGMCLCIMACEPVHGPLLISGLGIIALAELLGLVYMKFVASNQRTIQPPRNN
- Run Description: flow cytometry on RBCs, antibody 10 ng/ml
Result Type: mean fluorescence relative to chimeric antibody

Binder | Reported Value
chimeric antibody VxP037-01LC/VxP037-01HC (antibody, human IgG1, kappa, V domains shown, tested as CHO supernatant; also called Chimera; VxP037-01-LC-Pro/VxP037-01-HC-Pro) VH: EVQLQQFGAELVKPGASMKLSCKASGYTFTNYYVFWVKQRPGQGLEWIGDINPVNGDTNFNEKFKNKATLTVDKSSTTTYLQLSSLTSEDSAVYYCTRGGYTMDYWGQGTLVTVSS VL: DVVMTQTPLSLSVSLGDQASISCRSSQSLVHSNGNTYLHWYLQKPGQSPKLLIYKVSYRFSGVPDRFSGSGSGTDFTLKISRVEAEDLGVYFCSQNTHVPRTFGQGTKVEIKR | 1 fold of chimera
pVxK7b-037-hum24-LC/pVxK7b-037-hum24-HC (antibody, human IgG1, V domains shown, Full-length human IgG1/kappa in CHO supernatant; Variable entries end within framework 4 (...FGQG / ...WGQG); also called Clone 24) VH: QVQLQESGPGLVKPGATVKISCKVSGYTFTNYYVFWVRQARGQRLEWIGDINPVNGDTNFNEKFKNRVTITADKSTSTAYMELSSLRSEDTAVYYCARGGYTMDYWGQG VL: AIQLTQSPSSLSASVGDRVTITCRSSQSLVHSNGNTYLHWYQQKPGQAPRLLIYKVSYRFSGVPSRFSGSGSGTEFTLTISSLQPDDFATYYCSQNTHVPRTFGQG | 1.2 fold of chimera
pVxK7b-037-hum09-LC/pVxK7b-037-hum09-HC (antibody, human IgG1, V domains shown, Full-length human IgG1/kappa in CHO supernatant; Variable entries end within framework 4 (...FGQG / ...WGQG); also called Clone 9) VH: QVQLQESGPGLVKPSQTLSLTCTVSGYTFTNYYVFWVRQARGQRLEWIGDINPVNGDTNFNEKFKNRLTISKDTSKNQVVLTMTNMDPVDTATYYCARGGYTMDYWGQG VL: DVVMTQSPLSLPVTLGQPASISCRSSQSLVHSNGNTYLHWYQQKPGKAPKLLIYKVSYRFSGVPDRFSGSGSGTDFTLKISRVEAEDVGVYYCSQNTHVPRTFGQG | 3.7 fold of chimera
